Origin of values: patent US20220195023A1

target: (NANP)6 (Plasmodium falciparum); assay: SPR, antibody on chip
Measured log10(Kd) by item
Response schema: value (number) is log10 of Kd in units of nM.

Binder	log10(Kd)
AB-007070 (antibody, V domains shown) VH: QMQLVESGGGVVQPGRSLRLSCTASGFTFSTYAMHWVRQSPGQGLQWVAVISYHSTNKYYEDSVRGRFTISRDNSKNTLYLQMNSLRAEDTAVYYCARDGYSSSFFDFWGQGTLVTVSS VL: DIQMTQSPSTLSASVGDRVAITCRASQSISRWLAWYQQQPGKAPKLLMSAASVLESGVPSRFSGSGSGTEFTLTISSLQPDDFATYYCQHYNSYFVTFGQGTKVEIK	-1.10

Data request: Which measured log10(Kd) value corresponds to AB-007028 (antibody, V domains shown) VH: QMQLVESGGGVVQPGRSLRLSCAASGFTFSTYAMHWVRQAPGQGLQWVAVISYHSTNKYYEDSVRGRFTISRDNSKNTLYLQMNSLRAEDTAVYYCARDGYSSSFFDFWGQGTLVTVSS VL: DIQMTQSPSTLSASVGDRVTITCRASQSISRWLAWYQQQPGKAPKLLMSGASVLESGVPSRFSGSGSGTEFTLTISSLQPDDFATYYCQHYNSYFVTFGQGTKVEIK ?
Data returned: -0.78
